Molecular target: human CD33 T162A (human, UniProt P20138 18-364)
Sequence (P20138 18-364 T162A limits assumed): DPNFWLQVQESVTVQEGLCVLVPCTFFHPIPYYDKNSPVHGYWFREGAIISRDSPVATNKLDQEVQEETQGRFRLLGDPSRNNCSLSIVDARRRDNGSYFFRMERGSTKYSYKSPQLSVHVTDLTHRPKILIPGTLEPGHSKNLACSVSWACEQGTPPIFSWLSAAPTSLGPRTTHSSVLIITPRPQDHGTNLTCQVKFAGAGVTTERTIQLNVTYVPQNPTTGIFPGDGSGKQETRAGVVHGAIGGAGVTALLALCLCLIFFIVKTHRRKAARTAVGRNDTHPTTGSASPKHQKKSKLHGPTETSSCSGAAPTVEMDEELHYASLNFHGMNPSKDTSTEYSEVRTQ
Assay: flow cytometry on HEK293-T, alanine scan
The following binders are shown together with reported Mean % WT Binding values.
Please reply with the bare figure in % WT binding and do not write the unit itself.

In the examples that follow, each entry is paired with its recorded Mean % WT Binding.
Refmab #1 (antibody, V domains shown, The alanine scan used IgG or Fab; also called hP67.6) VH: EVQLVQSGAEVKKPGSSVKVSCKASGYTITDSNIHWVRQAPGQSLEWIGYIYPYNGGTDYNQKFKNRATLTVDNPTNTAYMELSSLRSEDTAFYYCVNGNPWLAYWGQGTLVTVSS VL: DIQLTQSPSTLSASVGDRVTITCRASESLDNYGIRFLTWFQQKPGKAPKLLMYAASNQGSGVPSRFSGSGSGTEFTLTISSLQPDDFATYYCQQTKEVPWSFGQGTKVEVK : 86.9
Refmab #3 (antibody, V domains shown, The alanine scan used IgG or Fab) VH: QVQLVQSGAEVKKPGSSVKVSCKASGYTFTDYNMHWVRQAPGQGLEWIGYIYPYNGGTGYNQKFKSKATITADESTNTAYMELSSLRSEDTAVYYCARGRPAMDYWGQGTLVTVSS VL: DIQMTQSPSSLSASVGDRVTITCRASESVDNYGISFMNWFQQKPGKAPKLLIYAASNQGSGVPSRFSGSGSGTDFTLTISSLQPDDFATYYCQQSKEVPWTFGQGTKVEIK : 109

Query Refmab #4 (antibody, V domains shown, The alanine scan used IgG or Fab) VH: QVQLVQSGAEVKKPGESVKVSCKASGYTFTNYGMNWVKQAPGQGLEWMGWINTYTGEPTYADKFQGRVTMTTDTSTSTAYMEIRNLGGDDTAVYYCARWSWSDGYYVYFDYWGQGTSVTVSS VL: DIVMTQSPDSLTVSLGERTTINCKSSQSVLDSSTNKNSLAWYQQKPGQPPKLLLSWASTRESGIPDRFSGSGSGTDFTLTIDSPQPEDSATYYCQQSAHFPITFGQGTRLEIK yields Mean % WT Binding of 79.9

Please fill in: Mean % WT Binding reported for Refmab #2 (antibody, V domains shown, The alanine scan used IgG or Fab) VH: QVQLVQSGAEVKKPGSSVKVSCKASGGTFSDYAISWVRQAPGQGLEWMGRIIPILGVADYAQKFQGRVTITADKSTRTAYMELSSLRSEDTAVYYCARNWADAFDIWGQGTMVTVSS VL: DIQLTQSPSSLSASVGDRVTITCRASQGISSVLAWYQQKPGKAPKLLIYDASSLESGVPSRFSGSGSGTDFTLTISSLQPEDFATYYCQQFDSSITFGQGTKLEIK = 102
